Test system: KM-20L2
assay_explanation: NCI tumour cell line growth inhibition, 48 h
Active and inactive are the calls of the source. No stated cut-off is given here; in the data, active = GI50 up to about 1.1 µM and inactive = higher.
Possible outcomes: Yes for active, No for inactive

>>> assigned_label("COc1cc(-c2cc(=O)c3cc(C)c(C)c(C(=O)O)c3o2)cc(OC)c1OC")
"No"
>>> assigned_label("N=C(N)NS(=O)(=O)c1ccc(Nc2c3ccccc3nc3c(C(=O)N4CCN(CCO)CC4)ccc(Cl)c23)cc1")
"No"
>>> assigned_label("COC(=O)C(CC(=O)c1ccccc1)c1ccccc1NC(C)=O (centres undefined)")
"No"
>>> assigned_label("COC1C=C(Nc2cccc(Cl)c2)C(=O)C1 (centres undefined)")
"No"
>>> assigned_label("Cc1cc(-c2ccccc2)nc(Nc2nc3ccccc3o2)n1")
"No"
>>> assigned_label("O=C(O)CCCc1ccc(N(CCCl)CCCl)cc1")
"No"
>>> assigned_label("O=[N+]([O-])c1cc2ncc(-c3ccccc3)c(O)c2cc1/C(Cl)=C/c1ccccc1")
"No"
>>> assigned_label("C=C1C(C(=O)O)C1C(=O)O (centres undefined)")
"No"
>>> assigned_label("COc1cccc2c1C(=O)c1c(O)c3c(c(O)c1C2=O)C[C@@](O)(C(C)=O)C[C@@H]3OC1CC(N)C(O)C(C)O1 (some centres undefined)")
"Yes"
>>> assigned_label("NCCN1C(=O)C2C3c4ccccc4C(c4ccccc43)C2C1=O (centres undefined)")
"No"
>>> assigned_label("COc1cc2c(cc1OC)C1[C@@H](c3ccccc3)OCN1CC2 (some centres undefined)")
"No"
>>> assigned_label("C/C(CC(=O)NCCc1ccccc1)=N\\NC(=O)C[n+]1ccccc1")
"No"
>>> assigned_label("Cc1cc(C)c(/C=N/NS(=O)(=O)c2ccccc2)c(C)c1")
"No"
>>> assigned_label("N#CC(c1ccccc1)c1nc2ccc(N)cc2[n+]([O-])c1C(C#N)c1ccccc1 (centres undefined)")
"No"
>>> assigned_label("COc1ccc2nc(C(=O)c3ccccc3)c(C)cc2c1")
"No"
>>> assigned_label("CS(=O)(=O)c1cc(=O)c2ccccc2s1")
"No"
>>> assigned_label("CCCCCCCC/C=C1\\CCC(CN(C)C)C1=O (centres undefined)")
"No"
>>> assigned_label("C=C(C)CC(C(=O)O)c1ccc(C)cc1 (centres undefined)")
"No"
>>> assigned_label("Nc1ccc(C(=O)N/C(=C\\c2cccc([N+](=O)[O-])c2)c2nc3c(O)nc(S)nc3[nH]2)cc1")
"No"
>>> assigned_label("Cc1ccc(S(=O)(=O)n2c(-c3ccccc3)c(-c3ccccc3)c3ccccc32)cc1")
"No"
>>> assigned_label("O=C1C[C@@H]2[C@@H](c3ccccc3)[C@@H]3C(=O)c4ccccc4NC(=O)[C@H]3[C@]2(O)c2ccccc2N1")
"No"
>>> assigned_label("COc1cc2ccc(=O)oc2cc1O")
"No"
>>> assigned_label("COc1ccc(-c2cc(O)c3cc(OC)ccc3n2)cc1")
"No"
>>> assigned_label("CCOP(=O)(OCC)/C(C#N)=C/c1ccc[nH]1")
"No"

----------
Parameter GI50: see the listing below.
System: A549
assay_explanation: NCI tumour cell line growth inhibition, 48 h
The source made the active and inactive calls. No stated cut-off is given here; in the data, active = GI50 up to about 1.1 µM and inactive = higher.
assay_readout: GI50

>>> result("Cc1nc2sc(CCl)nn2c(=O)c1Cl")
"15.1 µM (inactive)"
>>> result("COC(C)C(O)(C(=O)OCC1=CCN2CCC(O)C12)C(C)(C)O (stereo unspecified)")
"> 100 µM (inactive)"
>>> result("O=C(Nc1nc(C23CC4CC(CC(C4)C2)C3)cs1)c1cc2cc(Cl)ccc2oc1=O")
"> 100 µM (inactive)"
>>> result("Oc1nnnc2c1sc1ncccc12")
"> 100 µM (inactive)"
>>> result("Cc1ccc(S(=O)(=O)N(CC(O)COc2ccccc2)c2c(F)c(F)c(F)c(F)c2F)cc1 (stereo unspecified)")
"13.4 µM (inactive)"
>>> result("O=C(O)c1ccccc1Cc1ccco1")
"> 100 µM (inactive)"
>>> result("CC1=C(C(=O)CC(=O)C(=O)Nc2ccccc2C(F)(F)F)Sc2ccccc2N1")
"51.1 µM (inactive)"
>>> result("CSc1nc(=O)c(C#N)c(-c2ccccc2)n1C1OC(COC(C)=O)C(OC(C)=O)C(OC(C)=O)C1OC(C)=O (stereo unspecified)")
"69.3 µM (inactive)"
>>> result("CCCCCCCCC/C=C1/CC(CO)(COC(=O)c2ccccc2)OC1=O (stereo unspecified)")
"12.9 µM (inactive)"
>>> result("N#Cc1cc([N+](=O)[O-])ccc1NC(=O)C(=O)Nc1n[nH]c(N)n1")
"> 100 µM (inactive)"
>>> result("CC(C)(C)OC/C=C1\\C(=O)O[C@H]2C[C@@H](O[Si](C)(C)C(C)(C)C)C[C@@H]12")
"69.2 µM (inactive)"
>>> result("COC1C(O)C(C)OC(O[C@H]2CC[C@@]3(C)C(CC[C@@H]4[C@@H]3CC[C@]3(C)[C@@H](C(C)OC5OC(CO)C(O)C(O)C5O)CC[C@]43O)C2)C1O (stereo partly specified)")
"> 25 µM (inactive)"
>>> result("Cc1ccc(SC2C(C)(C)N(C(C)C)P2(=O)N(C(C)C)C(C)C)cc1 (stereo unspecified)")
"> 45 µM (inactive)"
>>> result("Nc1ccccc1C(=O)/C=C/c1ccccc1O")
"45.5 µM (inactive)"
>>> result("CCCCCCCC/C=C1\\CCC(CN(C)C)C1=O (stereo unspecified)")
"19.3 µM (inactive)"
>>> result("O=C(CC1(O)C(=O)Nc2c(Cl)cc(Cl)cc21)c1cccc2ccccc12 (stereo unspecified)")
"15.1 µM (inactive)"

----------
Tested on: UO-31
assay_explanation: NCI tumour cell line growth inhibition, 48 h
Activity calls are given as the source filed them. Rule as the data show it: active = GI50 up to about 1.1 µM and inactive = higher.
Possible outcomes: active, inactive

>>> assigned_label("CCOC(=O)c1c(SCCCN2CCCCC2)n(-c2ccccc2)c(=S)n(-c2ccccc2)c1=O")
"inactive"
>>> assigned_label("O=C1c2cccc3cc([N+](=O)[O-])cc(c23)C(=O)N1Nc1ccc([N+](=O)[O-])cc1[N+](=O)[O-]")
"inactive"
>>> assigned_label("COc1ccc(-c2cc(O)c3cc(OC)ccc3n2)cc1")
"inactive"
>>> assigned_label("C#CCNC(Cc1c[nH]cn1)C(=O)O (stereo not drawn)")
"inactive"
>>> assigned_label("COc1cc2cc3c4cc(OC)c(OC)cc4cc[n+]3c(C)c2cc1OC")
"inactive"
>>> assigned_label("FC(F)(F)c1ccc2c(c1)nc(Cc1ccccc1)n2C[C@@H]1CCCN2CCCCC12 (stereo partly drawn)")
"active"
>>> assigned_label("CCN(CC)C(=S)SS(=O)(=O)c1ccccc1C(=O)O")
"inactive"
>>> assigned_label("O=S(O)CCCCSSCc1ccccc1CSSCCCCS(=O)O")
"inactive"

----------
Parameter GI50: see the listing below.
System: SK-MEL-5
assay_explanation: NCI tumour cell line growth inhibition, 48 h
Active and inactive are the calls of the source. No stated cut-off is given here; in the data, active = GI50 up to about 1.1 µM and inactive = higher. Non-standard residues stand in square brackets, D forms with d. Residues, ends and D or L forms follow the SMILES beside them. *: point of attachment. Phe(4-NO2) = N[CH](Cc1ccc([N+](=O)[O-])cc1)C(=O)O; Boc = CC(C)(C)OC(=O)*
assay_readout: GI50

>>> result("COc1ccc(N2C(=O)C3c4[nH]c5ccccc5c4C4CCCCC4C3C2=O)cc1 (centres undefined)")
"21.7 µM (inactive)"
>>> result("CS(=O)(=O)N(CCC#N)c1ccc(/C=N/NC(=O)CC(=O)Nc2cccc(Cl)c2)cc1")
"> 100 µM (inactive)"
>>> result("COC(=O)/C=C/c1ccc2c(c1)CC1(C2)Cc2cc3c(cc2C1=O)CCC3 (centres undefined)")
"74.8 µM (inactive)"
>>> result("COC(=O)CCC(NC(=O)OC(C)(C)C)C(=O)NC(Cc1ccc([N+](=O)[O-])cc1)C(=O)NC(CCC(=O)OC)C(=O)OC (centres undefined) (Boc-Glu(OMe)-[Phe(4-NO2)]-Glu(OMe)-OMe; configuration not given here)")
"> 100 µM (inactive)"

----------
System: HL-60
assay_explanation: NCI tumour cell line growth inhibition, 48 h
The source made the active and inactive calls. Rule as the data show it: active = GI50 up to about 1.1 µM and inactive = higher.
Possible outcomes: active, inactive

>>> assigned_label("COc1ccc(OC)c2c(C(=O)O)c(Cc3ccccc3)ccc12")
"inactive"
>>> assigned_label("CNc1ccc(N)cc1C(=O)N1CCC[C@H]1CO")
"inactive"
>>> assigned_label("O=C(CC/C(CC(=O)c1ccc(Br)cc1)=N\\O)Nc1ccc(Cl)c(Cl)c1")
"inactive"
>>> assigned_label("COc1ccc2c(c1)CCN1C3=C(CCC3)C(=O)C[C@@H]21")
"inactive"
>>> assigned_label("COc1c(C)c(OC)c2c(c1O)[C@@H]1[C@@H]3Cc4c(OC)c(C)c(OC)c(O)c4[C@H](CNC(=O)c4ccc5ccccc5n4)N3[C@@H](C#N)[C@H](C2)N1C")
"active"
>>> assigned_label("CC(=O)OCC12CC(CC1OC(C)=O)c1ccccc12 (configuration not stated)")
"inactive"
>>> assigned_label("CCOC(=O)NC(=O)c1cn(CCNCCO)c(=O)[nH]c1=O")
"inactive"
>>> assigned_label("Sc1nnc(-c2ccccc2)n1/N=C\\c1ccc(-c2ccc(Cl)cc2)o1")
"inactive"
>>> assigned_label("CCN(CC)CCNc1c(OC)cc(C)c2sc3ccccc3c(=O)c12")
"inactive"
>>> assigned_label("CCCCN(CC)CC(C(C)=O)c1c(O)c2ccccc2oc1=O (configuration not stated)")
"inactive"
>>> assigned_label("C[Si](C)(C)CC(N)=O")
"inactive"
>>> assigned_label("N#Cc1ccc(/C=N/NC(=O)CSCC(=O)N/N=C/c2ccc(C#N)cc2)cc1")
"inactive"
>>> assigned_label("COc1cc2c(cc1OC)C(=O)/C(=C/c1ccc(Cl)cc1)CC2")
"inactive"
>>> assigned_label("CS(=O)(=O)OCCCCOS(=O)(=O)CF")
"inactive"
>>> assigned_label("S=C(N/N=C(/c1ccccc1)c1ccccn1)Nc1cccc(Cl)c1")
"active"
>>> assigned_label("O=C(c1ccccc1)N1CCC(Nc2cccnc2)O1 (configuration not stated)")
"inactive"
>>> assigned_label("N#Cc1ccccc1C#C/C=C\\C#Cc1ccccn1")
"inactive"
